species on record: Homo sapiens; assay: Selectivity ratio of EC50 for human mGlu4 receptor to EC50 for human mGlu1 receptor
# reported Ratio EC50; entries follow
Respond with the number and no other words.

Lab book: Ratio EC50 of Cc1ccc2c(c1)C(=O)N(c1ccc(NC(=O)c3nccn3C)cc1Cl)C2=O noted as 2.4

Lab book: Ratio EC50 of Cc1ocnc1C(=O)Nc1ccc(N2C(=O)c3cccc(F)c3C2=O)c(Cl)c1 noted as 1.7

Lab book: Ratio EC50 of Cc1ocnc1C(=O)Nc1ccc(N2C(=O)c3ccc(Cl)cc3C2=O)c(Cl)c1 noted as 7.4

Lab book: Ratio EC50 of Cn1ccnc1C(=O)Nc1ccc(N2C(=O)c3ccc(Cl)cc3C2=O)c(Cl)c1 noted as 5.9

Lab book: Ratio EC50 of Cc1ocnc1C(=O)Nc1ccc(N2C(=O)c3ccc(F)cc3C2=O)c(Cl)c1 noted as 4.6

Shift focus to the following entry.
Lab book: Ratio EC50 of Cc1cccc2c1C(=O)N(c1ccc(NC(=O)c3ncsc3C)cc1Cl)C2=O noted as 6.1

* * *

molecular target: Metabotropic glutamate receptor 1 (Homo sapiens, UniProt Q13255); assay: Positive allosteric modulation of human mGlu1 receptor at 10 uM by cell based calcium mobilization relative to glutamate; format: functional
Sequence (Q13255 19-1194 limits assumed): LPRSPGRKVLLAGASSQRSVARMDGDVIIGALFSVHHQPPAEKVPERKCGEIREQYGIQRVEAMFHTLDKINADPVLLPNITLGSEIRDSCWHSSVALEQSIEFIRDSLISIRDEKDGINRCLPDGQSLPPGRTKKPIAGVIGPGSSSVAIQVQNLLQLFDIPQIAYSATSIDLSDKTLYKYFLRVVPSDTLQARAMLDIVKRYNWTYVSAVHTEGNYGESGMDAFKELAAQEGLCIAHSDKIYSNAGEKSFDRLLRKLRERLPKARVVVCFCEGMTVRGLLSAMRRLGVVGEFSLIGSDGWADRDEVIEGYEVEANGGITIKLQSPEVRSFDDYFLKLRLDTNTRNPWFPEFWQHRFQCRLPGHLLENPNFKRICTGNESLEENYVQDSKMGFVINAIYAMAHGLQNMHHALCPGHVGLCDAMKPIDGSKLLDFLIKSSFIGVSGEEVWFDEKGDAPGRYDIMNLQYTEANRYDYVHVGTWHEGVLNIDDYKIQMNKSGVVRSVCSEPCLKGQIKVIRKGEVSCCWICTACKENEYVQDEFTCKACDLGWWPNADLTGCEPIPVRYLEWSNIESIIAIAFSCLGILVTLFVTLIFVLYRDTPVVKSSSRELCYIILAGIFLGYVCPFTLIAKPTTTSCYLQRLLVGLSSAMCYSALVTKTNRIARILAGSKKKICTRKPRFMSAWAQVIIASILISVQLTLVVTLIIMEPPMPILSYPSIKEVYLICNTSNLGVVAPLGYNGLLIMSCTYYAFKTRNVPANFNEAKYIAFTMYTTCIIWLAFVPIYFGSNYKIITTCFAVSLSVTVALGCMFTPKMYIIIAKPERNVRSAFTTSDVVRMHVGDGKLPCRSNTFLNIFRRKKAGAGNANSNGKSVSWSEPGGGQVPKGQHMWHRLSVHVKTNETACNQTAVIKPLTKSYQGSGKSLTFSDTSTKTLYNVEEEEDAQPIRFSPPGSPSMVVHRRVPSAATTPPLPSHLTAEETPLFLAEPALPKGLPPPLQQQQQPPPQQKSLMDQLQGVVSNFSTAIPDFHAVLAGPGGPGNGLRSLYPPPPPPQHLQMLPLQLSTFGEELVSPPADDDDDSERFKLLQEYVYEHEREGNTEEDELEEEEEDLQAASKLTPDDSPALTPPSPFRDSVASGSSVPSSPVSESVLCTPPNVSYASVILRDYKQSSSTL
result type: %max
Please state the value followed by its unit.

// solved cases for %max follow
Lab book: %max of Cc1cccc2c1C(=O)N(c1ccc(NC(=O)c3ncsc3C)cc1Cl)C2=O noted as 104%

Lab book: %max of Cc1ocnc1C(=O)Nc1ccc(N2C(=O)c3ccccc3C2=O)cc1F noted as 18%

Lab book: %max of Cc1ccc2c(c1)C(=O)N(c1ccc(NC(=O)c3ncoc3C)c(F)c1)C2=O noted as 14%

Lab book: %max of Cn1ccnc1C(=O)Nc1ccc(N2C(=O)c3cccnc3C2=O)c(Cl)c1 noted as 44%

Continuing:
Lab book: %max of Cn1ccnc1C(=O)Nc1ccc(N2C(=O)c3cccc(F)c3C2=O)c(Cl)c1 noted as 43%

* * *

assay: Mean residence time in rat at 0.25 mg/kg, iv; type: ADME, organism-based; conditions: in vivo
# reported log10 of MRT; entries follow
Please interpret these as log10 of MRT where MRT is in h.

Lab book: log10 of MRT of Cc1ccoc1C(=O)Nc1ccc(N2C(=O)c3cccc(F)c3C2=O)cc1F noted as 0.13

Lab book: log10 of MRT of Cc1ccc2c(c1)C(=O)N(c1ccc(NC(=O)c3occc3C)c(F)c1)C2=O noted as 0.74

Lab book: log10 of MRT of Cc1ccoc1C(=O)Nc1ccc(N2C(=O)c3ccc(Cl)cc3C2=O)cc1F noted as -0.12

Lab book: log10 of MRT of Cc1ccoc1C(=O)Nc1ccc(N2C(=O)c3ccc(F)cc3C2=O)cc1F noted as -0.29

Shift focus to the following entry.
Lab book: log10 of MRT of Cc1ccoc1C(=O)Nc1ccc(N2C(=O)c3cccc(C)c3C2=O)cc1F noted as 0.49

* * *

experiment: Ratio of drug level in brain to plasma in rat brain at 0.25 mg/kg, iv after 0.25 hrs by PBL cassette study; type: ADME, organism-based
result type: Ratio
Respond with the number and no other words.

// solved cases for Ratio follow
Lab book: Ratio of Cc1ccoc1C(=O)Nc1ccc(N2C(=O)c3cccc(F)c3C2=O)cc1F noted as 0.64

Lab book: Ratio of Cc1ccoc1C(=O)Nc1ccc(N2C(=O)c3ccc(F)cc3C2=O)cc1F noted as 0.95

Lab book: Ratio of Cc1ccoc1C(=O)Nc1ccc(N2C(=O)c3ccc(Cl)cc3C2=O)cc1F noted as 0.55

Shift focus to the following entry.
Lab book: Ratio of Cc1ccc2c(c1)C(=O)N(c1ccc(NC(=O)c3occc3C)c(F)c1)C2=O noted as 0.25

* * *

tested on: Plasma; test: Plasma concentration in rat at 0.25 mg/kg, iv by PBL cassette study; assay type: ADME, organism-based; conditions: in vivo
# reported Cp; entries follow
The answer is to be given in ng/mL; state only the numeric part.

// solved cases for Cp follow
Lab book: Cp of Cc1ccoc1C(=O)Nc1ccc(N2C(=O)c3ccc(Cl)cc3C2=O)cc1F noted as 217

Lab book: Cp of Cc1ccoc1C(=O)Nc1ccc(N2C(=O)c3cccc(C)c3C2=O)cc1F noted as 191

Lab book: Cp of Cc1ccoc1C(=O)Nc1ccc(N2C(=O)c3cccc(F)c3C2=O)cc1F noted as 151

Shift focus to the following entry.
Lab book: Cp of Cc1ccc2c(c1)C(=O)N(c1ccc(NC(=O)c3occc3C)c(F)c1)C2=O noted as 699

* * *

assay: Half life in rat at 0.25 mg/kg, iv; assay type: ADME, organism-based; conditions: in vivo
result type: half-life (h)
The answer is to be given in h; state only the numeric part.

Lab book: half-life of Cc1ccoc1C(=O)Nc1ccc(N2C(=O)c3ccc(Cl)cc3C2=O)cc1F noted as 0.858

Lab book: half-life of Cc1ccc2c(c1)C(=O)N(c1ccc(NC(=O)c3occc3C)c(F)c1)C2=O noted as 4.93

Lab book: half-life of Cc1ccoc1C(=O)Nc1ccc(N2C(=O)c3ccc(F)cc3C2=O)cc1F noted as 0.648

Shift focus to the following entry.
Lab book: half-life of Cc1ccoc1C(=O)Nc1ccc(N2C(=O)c3cccc(F)c3C2=O)cc1F noted as 1.28

* * *

target: Metabotropic glutamate receptor 4 (Homo sapiens, UniProt Q14833); assay: Positive allosteric modulation of human mGlu4 receptor assessed as glutamate-induced calcium mobilization at 10 uM by cell based assay relative to PHCCC; assay type: functional
Sequence (Q14833 whole entry): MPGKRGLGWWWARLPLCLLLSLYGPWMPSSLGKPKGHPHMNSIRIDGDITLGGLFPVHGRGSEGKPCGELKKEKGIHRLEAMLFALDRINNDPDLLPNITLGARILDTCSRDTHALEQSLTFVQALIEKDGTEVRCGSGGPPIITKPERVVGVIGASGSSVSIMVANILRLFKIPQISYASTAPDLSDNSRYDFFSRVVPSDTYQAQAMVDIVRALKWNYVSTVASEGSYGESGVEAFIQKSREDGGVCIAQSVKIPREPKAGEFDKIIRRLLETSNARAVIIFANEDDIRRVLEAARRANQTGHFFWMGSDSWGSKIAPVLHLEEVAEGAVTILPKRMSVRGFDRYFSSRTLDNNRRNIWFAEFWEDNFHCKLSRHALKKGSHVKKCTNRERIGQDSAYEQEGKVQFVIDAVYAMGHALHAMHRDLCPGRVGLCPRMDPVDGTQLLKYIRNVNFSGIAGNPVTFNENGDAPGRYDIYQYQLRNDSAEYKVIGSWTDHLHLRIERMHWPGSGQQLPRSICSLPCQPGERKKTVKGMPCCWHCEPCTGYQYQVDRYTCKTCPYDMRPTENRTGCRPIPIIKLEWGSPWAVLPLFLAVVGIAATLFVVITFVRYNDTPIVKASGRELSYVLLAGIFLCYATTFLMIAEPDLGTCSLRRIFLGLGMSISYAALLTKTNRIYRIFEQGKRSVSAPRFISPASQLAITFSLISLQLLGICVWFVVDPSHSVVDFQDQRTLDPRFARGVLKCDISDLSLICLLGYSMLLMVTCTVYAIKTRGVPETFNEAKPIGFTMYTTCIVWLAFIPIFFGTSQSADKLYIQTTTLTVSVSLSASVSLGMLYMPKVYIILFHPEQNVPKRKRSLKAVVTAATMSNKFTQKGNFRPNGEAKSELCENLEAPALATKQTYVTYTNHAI
result type: %max (%)
The answer is to be given in %; state only the numeric part.

// solved cases for %max follow
Lab book: %max of Cc1ocnc1C(=O)Nc1ccc(N2C(=O)c3ccc(F)cc3C2=O)c(Cl)c1 noted as 36

Lab book: %max of Cn1ccnc1C(=O)Nc1ccc(N2C(=O)c3cccc(F)c3C2=O)c(Cl)c1 noted as 42

Lab book: %max of Cc1ocnc1C(=O)Nc1ccc(N2C(=O)c3ccc(Cl)cc3C2=O)c(Cl)c1 noted as 67

Lab book: %max of Cc1cccc2c1C(=O)N(c1ccc(NC(=O)c3nccn3C)cc1Cl)C2=O noted as 32

Lab book: %max of Cc1ocnc1C(=O)Nc1ccc(N2C(=O)c3cccnc3C2=O)c(Cl)c1 noted as 45

Lab book: %max of Cc1cn[nH]c1C(=O)Nc1ccc(N2C(=O)c3cccnc3C2=O)c(Cl)c1 noted as 27

Continuing:
Lab book: %max of Cc1scnc1C(=O)Nc1ccc(N2C(=O)c3ccc(Cl)cc3C2=O)c(Cl)c1 noted as 169

Lab book: %max of Cc1ocnc1C(=O)Nc1ccc(N2C(=O)c3cccc(Cl)c3C2=O)c(Cl)c1 noted as 24

Lab book: %max of Cc1scnc1C(=O)Nc1ccc(N2C(=O)c3cccc(F)c3C2=O)c(Cl)c1 noted as 52

* * *

assay: Fraction unbound in rat brain by rapid equilibrium dialysis binding assay; assay type: ADME, tissue-based
result type: fraction unbound
Respond with the number and no other words.

// solved cases for fraction unbound follow
Lab book: fraction unbound of Cc1ccoc1C(=O)Nc1ccc(N2C(=O)c3ccc(Cl)cc3C2=O)cc1F noted as 0.272

Lab book: fraction unbound of Cc1ccc2c(c1)C(=O)N(c1ccc(NC(=O)c3occc3C)c(F)c1)C2=O noted as 0.193

Continuing:
Lab book: fraction unbound of Cc1ccoc1C(=O)Nc1ccc(N2C(=O)c3cccc(F)c3C2=O)cc1F noted as 0.034

Lab book: fraction unbound of Cc1ccoc1C(=O)Nc1ccc(N2C(=O)c3cccc(C)c3C2=O)cc1F noted as 0.298

Lab book: fraction unbound of Cc1ccoc1C(=O)Nc1ccc(N2C(=O)c3ccc(F)cc3C2=O)cc1F noted as 0.17

* * *

# reported %max; entries follow
molecular target: Metabotropic glutamate receptor 1 (Homo sapiens); experiment: Positive allosteric modulation of human mGlu1 receptor at 10 uM by cell based calcium mobilization relative to glutamate; type: functional
Please state the value followed by its unit.

// solved cases for %max follow
Record for Cc1ccoc1C(=O)Nc1ccc(N2C(=O)c3cccc(C)c3C2=O)cc1F under target or system Metabotropic glutamate receptor 1 (Homo sapiens): %max reported as 70%

Record for Cc1cn[nH]c1C(=O)Nc1ccc(N2C(=O)c3ccc(Cl)cc3C2=O)c(Cl)c1 under target or system Metabotropic glutamate receptor 1 (Homo sapiens): %max reported as 113%

Record for Cc1scnc1C(=O)Nc1ccc(N2C(=O)c3cccc(F)c3C2=O)cc1F under target or system Metabotropic glutamate receptor 1 (Homo sapiens): %max reported as 43%

Record for Cc1cc[nH]c1C(=O)Nc1ccc(N2C(=O)c3ccccc3C2=O)c(Cl)c1 under target or system Metabotropic glutamate receptor 1 (Homo sapiens): %max reported as 95%

Shift focus to the following entry.
Record for Cc1ocnc1C(=O)Nc1ccc(N2C(=O)c3ccc(F)cc3C2=O)cc1F under target or system Metabotropic glutamate receptor 1 (Homo sapiens): %max reported as 16%
